Quick reference: % @ concentration, uM of the listed items.
# testedOn: phospho p-38 alpha kinase (Homo sapiens)
# Construct: purchased Panvera
# Sequence (Q16539 whole entry): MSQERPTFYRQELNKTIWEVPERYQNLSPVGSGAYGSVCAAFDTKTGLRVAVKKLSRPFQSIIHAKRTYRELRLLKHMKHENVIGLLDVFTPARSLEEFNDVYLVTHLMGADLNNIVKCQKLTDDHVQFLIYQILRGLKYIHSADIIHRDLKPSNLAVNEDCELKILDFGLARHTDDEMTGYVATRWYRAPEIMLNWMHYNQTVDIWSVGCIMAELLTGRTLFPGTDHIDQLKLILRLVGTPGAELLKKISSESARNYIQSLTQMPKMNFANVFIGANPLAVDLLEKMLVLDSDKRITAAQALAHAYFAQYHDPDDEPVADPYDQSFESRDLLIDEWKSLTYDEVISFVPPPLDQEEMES
# methodSummary: P-38 alpha kinase assay (spectrophotometric, pyruvate kinase/lactate dehydrogenase coupled)
# Type: biochemical
# measurementParameters: Table 5; @ 1 uM
Expressed in %, but write only the number.

See these solved cases before continuing.
| molecule | unitInfo | numericValue |
| --- | --- | --- |
| CC(Cc1cccc(-n2nc(C(C)(C)C)cc2NC(=O)Nc2cccc(Cl)c2Cl)c1)C(=O)O (stereo not shown) | % | 9 |
| CC(C)(C)c1cc(NC(=O)Nc2cccc(Cl)c2Cl)n(-c2cccc(Cn3c(=O)[nH]n(-c4ccccc4)c3=O)c2)n1 | % | 56 |
| CC(C)(C)c1cc(NC(=O)Nc2cccc3ccccc23)n(-c2ccc(O)cc2)n1 | % | 69 |
| NC(=O)Cc1cccc(-n2nc(-c3ccccc3F)cc2NC(=O)Nc2cccc(Cl)c2Cl)c1 | % | 89 |
| O=C(O)Cc1cccc(-n2nc(-c3ccsc3)cc2NC(=O)Nc2cccc(Cl)c2Cl)c1 | % | 41 |

In one line, give reported % @ concentration, uM of the entry `CC(C)(C)c1cc(NC(=O)Nc2ccc(Cl)cc2)n(-c2cccc(Cn3c(=O)[nH]n(-c4ccccc4)c3=O)c2)n1` .
86

Identify % @ concentration, uM associated with the molecule Cc1cc(NC(=O)Nc2cccc3ccccc23)n(-c2ccc(C(O)C(F)(F)F)cc2)n1 (stereo not shown)
47

Dear colleague, please send me the reported % @ concentration, uM for `CC(C)(C)c1cc(NC(=O)Nc2ccc(F)cc2F)n(-c2cccc(C#N)c2)n1` when you can.
95

State, in one line, measured % @ concentration, uM of `Cc1cc(NC(=O)Nc2cccc(Cl)c2Cl)n(-c2ccc(CO)cc2)n1`
31

Kindly indicate its recorded % @ concentration, uM. Item: `COC(=O)COc1ccc(-n2nc(C(C)(C)C)cc2NC(=O)Nc2cccc3ccccc23)cc1`
83

In one line, give reported % @ concentration, uM of the entry `CC(C)c1cc(NC(=O)Nc2cccc3ccccc23)n(-c2cccc(C=O)c2)n1` .
64

State its % @ concentration, uM for this molecule: `O=C(Nc1ccc(F)c(F)c1F)Nc1cc(-c2cccs2)nn1-c1cccc(CO)c1`
36

====

# testedOn: UniProt P00519
# Sequence (P00519 229-512): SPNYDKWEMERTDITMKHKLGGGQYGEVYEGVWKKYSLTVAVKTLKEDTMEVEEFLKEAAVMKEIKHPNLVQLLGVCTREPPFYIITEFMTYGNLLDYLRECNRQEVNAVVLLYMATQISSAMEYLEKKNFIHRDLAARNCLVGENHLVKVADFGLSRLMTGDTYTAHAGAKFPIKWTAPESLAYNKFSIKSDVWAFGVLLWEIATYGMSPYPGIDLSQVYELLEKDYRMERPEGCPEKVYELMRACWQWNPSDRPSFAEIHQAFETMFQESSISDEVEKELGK
# methodSummary: Abl kinase assay A1
# Type: biochemical
# measurementParameters: read-out: Results, % @ concentration μM, Method A1; @ 10 μM
Mark FALSE for inhibition at 10 µM values under 30%, and TRUE for everything at or above.

Past entries and their recorded results:
| compound | testedOn | groupLabel |
| --- | --- | --- |
| CC(C)(C)c1cc(NC(=O)Nc2ccc(F)cc2F)n(-c2ccc(CC(N)=O)cc2)n1 [Example 498] | UniProt P00519 | TRUE |
| O=C(Cc1ccc(-n2nc(-c3ccccc3)cc2NC(=O)Nc2cccc(Cl)c2Cl)cc1)NCCO [Example 470] | UniProt P00519 | FALSE |
| CC(C)(C)c1cc(NC(=O)Nc2ccc(F)cc2F)n(-c2cccc(C#N)c2)n1 [Example 499] | UniProt P00519 | TRUE |
| CC(C)(C)c1cc(NC(=O)Nc2ccc(F)cc2F)n(-c2cccc(CC(N)=O)c2)n1 [Example 496] | UniProt P00519 | TRUE |
| CN(C)[C@@H]1CCN(C(=O)Cc2ccc(-n3nc(C(C)(C)C)cc3NC(=O)Nc3cccc(Cl)c3Cl)cc2)C1 [Example 480] | UniProt P00519 | TRUE |
| O=C(O)Cc1ccc(-n2nc(C3CCCC3)cc2NC(=O)Nc2cccc(Cl)c2Cl)cc1 [Example 441] | UniProt P00519 | TRUE |
| O=C(Nc1cccc(Cl)c1Cl)Nc1cc(-c2cccs2)nn1-c1cccc(CC(=O)N2CC[C@H](O)C2)c1 [Example 463] | UniProt P00519 | TRUE |
| NC(=O)Cc1ccc(-n2nc(-c3ccsc3)cc2NC(=O)Nc2cccc(Cl)c2Cl)cc1 [Example 469] | UniProt P00519 | FALSE |

Check the entry CC(C)(C)c1cc(NC(=O)Nc2ccc(F)c(F)c2F)n(-c2ccc(CC(=O)O)cc2)n1 [Example 492] : does inhibition at 10 µM equal or exceed 30%?
TRUE

Does inhibition at 10 µM meet or surpass 30% for CCOC(=O)Cc1ccc(-n2nc(C3CCCC3)cc2NC(=O)Nc2cccc(Cl)c2Cl)cc1 [Example 437] ?
FALSE

Evaluate CC(C)(C)c1cc(NC(=O)Nc2cc(F)c(F)cc2F)n(-c2cccc(CC(N)=O)c2)n1 [Example 494] : inhibition at 10 µM at minimum 30%?
TRUE

Check the entry CC(C)(C)c1cc(NC(=O)Nc2cccc(Cl)c2Cl)n(-c2ccc(CC(=O)N3CC[C@H](O)C3)cc2)n1 [Example 478] : does inhibition at 10 µM equal or exceed 30%?
TRUE

hey, is inhibition at 10 µM for this one >= 30%? O=C(O)Cc1cccc(-n2nc(-c3ccc(F)cc3)cc2NC(=O)Nc2cccc(Cl)c2Cl)c1 [Example 431]
FALSE

Kindly determine if inhibition at 10 µM recorded for NC(=O)Cc1cccc(-n2nc(-c3ccsc3)cc2NC(=O)Nc2cccc(Cl)c2Cl)c1 [Example 452] is above or exactly 30%.
TRUE

Assess whether reported inhibition at 10 µM for O=C(O)Cc1cccc(-n2nc(-c3ccccc3F)cc2NC(=O)Nc2cccc(Cl)c2Cl)c1 [Example 433] sits at 30% or higher.
TRUE

# bool: inhibition at 10 µM of CC(C)(C)c1cc(NC(=O)Nc2cccc(-c3ccc(N)nc3)c2)n(-c2cccc(CC(N)=O)c2)n1 [Example 508] >= 30%
TRUE

====

# testedOn: B-Raf(V599E) kinase (Homo sapiens, UniProt P15056, V600E)
# Sequence (P15056 with tags, fused parts or gaps V600E): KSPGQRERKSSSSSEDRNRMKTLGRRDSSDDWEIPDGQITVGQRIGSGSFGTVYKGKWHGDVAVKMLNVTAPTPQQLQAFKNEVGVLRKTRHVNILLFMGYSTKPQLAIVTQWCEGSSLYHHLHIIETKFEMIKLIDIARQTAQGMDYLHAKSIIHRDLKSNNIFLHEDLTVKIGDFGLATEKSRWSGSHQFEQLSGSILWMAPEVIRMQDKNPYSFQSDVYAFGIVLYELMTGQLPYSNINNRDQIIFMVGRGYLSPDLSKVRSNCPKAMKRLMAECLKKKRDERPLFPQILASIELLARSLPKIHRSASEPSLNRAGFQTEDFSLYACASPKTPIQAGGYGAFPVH
# methodSummary: B-Raf(V599E) kinase assay B1
# Assay type: biochemical
# measurementParameters: Method B1; construct 1
attributeMeasured: IC50
Write the figure, then the unit, nothing else.

Some solved cases for reference:
| molecule | attributeMeasured | result |
| --- | --- | --- |
| NC(=O)Cc1cccc(-n2nc(-c3cccs3)cc2NC(=O)Nc2cccc(Cl)c2Cl)c1 | IC50 | 0.84 µM |
| CC(C)(C)c1cc(NC(=O)Nc2ccc(F)cc2F)n(-c2ccc(CC(N)=O)cc2)n1 | IC50 | 0.074 µM |
| O=C(O)Cc1cccc(-n2nc(C3CCCC3)cc2NC(=O)Nc2cccc(Cl)c2Cl)c1 | IC50 | 0.006 µM |

Tell me IC50 reported for CC(C)(C)c1cc(NC(=O)Nc2cccc(Cl)c2Cl)n(-c2ccc(CC(=O)N3CCCC(C(=O)O)C3)cc2)n1 (stereo not shown)
0.041 µM

Give the reported value of IC50 for this record: `CC(C)(C)c1cc(NC(=O)Nc2ccc(F)c(F)c2F)n(-c2ccc(CC(=O)O)cc2)n1`
0.028 µM

Please supply the value of reported IC50 for the item `Cn1c(=O)c(-c2cccc(NC(=O)Nc3cc(C(C)(C)C)nn3-c3cccc(CC(N)=O)c3)c2)cc2cncnc21`
0.008 µM

Given the molecule `NC(=O)Cc1ccc(-n2nc(C3CCCC3)cc2NC(=O)Nc2cccc(Cl)c2Cl)cc1` , write its reported IC50.
0.032 µM

Note down IC50 recorded for `NC(=O)Cc1cccc(-c2ccc(C(F)(F)F)cc2NC(=O)Nc2ccc(-c3cccc4c3CNC4=O)cc2)c1`
0.014 µM

Please list IC50 recorded for the molecule `NC(=O)Cc1ccc(-n2nc(-c3cccs3)cc2NC(=O)Nc2cccc(Cl)c2Cl)cc1`
1.2 µM

Specify reported IC50 for the molecule shown: `C=C1NS(=O)(=O)N(Cc2cccc(-n3nc(C(C)(C)C)cc3NC(=O)Nc3cccc(Cl)c3Cl)c2)C1=O`
1.7 µM

Check the records and state IC50 for `Cc1ccc(NC(=O)Nc2cc(C(C)(C)C)nn2-c2cccc(CC(N)=O)c2)cc1Nc1nccc(-c2cccnc2)n1`
0.022 µM

Give a short answer stating reported IC50 for CN(C)[C@@H]1CCN(C(=O)Cc2ccc(-n3nc(C(C)(C)C)cc3NC(=O)Nc3cccc(Cl)c3Cl)cc2)C1 [Example 481] .
0.041 µM

State, in one line, measured IC50 of `CC(C)(C)c1cc(NC(=O)Nc2cccc(-c3cccnc3)c2)n(-c2cccc(CC(N)=O)c2)n1`
0.035 µM

Give the reported IC50 for this molecule. `CC(C)(C)c1cc(NC(=O)Nc2cccc(-c3ccc(N)nc3)c2)n(-c2cccc(CC(N)=O)c2)n1`
0.02 µM

Complete the entry with IC50 for `CC(C)(C)c1cc(NC(=O)Nc2cccc(Cl)c2Cl)n(-c2cccc(CN3C(=O)NC(=O)C3=O)c2)n1`
0.0038 µM

For the molecule O=C(Cc1cccc(-n2nc(-c3cccs3)cc2NC(=O)Nc2cccc(Cl)c2Cl)c1)NCC(O)CO (stereo not shown) , give its reported IC50.
2.4 µM

Quote IC50 reported for `CC(C)(C)c1cc(NC(=O)Nc2ccc(F)cc2F)n(-c2cccc(C#N)c2)n1` please.
0.026 µM

Output measured IC50 for this item: CN(C)[C@@H]1CCN(C(=O)Cc2ccc(-n3nc(C(C)(C)C)cc3NC(=O)Nc3cccc(Cl)c3Cl)cc2)C1 [Example 480]
0.029 µM

Name the recorded IC50 of the item `O=C(O)Cc1cccc(-n2nc(-c3cccs3)cc2NC(=O)Nc2cccc(Cl)c2Cl)c1` in your answer.
0.16 µM

Let me know recorded IC50 for `CC(C)(C)c1cc(NC(=O)Nc2cccc(Oc3cnccn3)c2)n(-c2cccc(CC(N)=O)c2)n1` , thanks.
0.043 µM

Provide IC50 value for the following molecule: `CCOC(=O)Cc1ccc(-n2nc(C3CCCC3)cc2NC(=O)Nc2cccc(Cl)c2Cl)cc1`
0.16 µM

Tell me measured IC50 for `CNC(=O)c1cc(Oc2ccc(NC(=O)Nc3cc(C(C)(C)C)nn3-c3cccc(CC(N)=O)c3)cc2)ccn1` please.
0.02 µM

Please report the measured IC50 for `O=C(Nc1cccc(Cl)c1Cl)Nc1cc(-c2ccccc2)nn1-c1cccc(CO)c1`
7.4 µM

// fetch IC50 given entry `CC(C)(C)c1cc(NC(=O)Nc2ccc(-c3cccc4c3CNC4=O)cc2)n(-c2cccc(CC(N)=O)c2)n1`
0.21 µM

Tell us which IC50 value is on record for `CC(C)(C)c1cc(NC(=O)Nc2ccc(F)c(F)c2F)n(-c2cccc(CC(N)=O)c2)n1`
0.007 µM
